Target or system: D(2) dopamine receptor (Rattus norvegicus, UniProt P61169)
Sequence (P61169 whole entry): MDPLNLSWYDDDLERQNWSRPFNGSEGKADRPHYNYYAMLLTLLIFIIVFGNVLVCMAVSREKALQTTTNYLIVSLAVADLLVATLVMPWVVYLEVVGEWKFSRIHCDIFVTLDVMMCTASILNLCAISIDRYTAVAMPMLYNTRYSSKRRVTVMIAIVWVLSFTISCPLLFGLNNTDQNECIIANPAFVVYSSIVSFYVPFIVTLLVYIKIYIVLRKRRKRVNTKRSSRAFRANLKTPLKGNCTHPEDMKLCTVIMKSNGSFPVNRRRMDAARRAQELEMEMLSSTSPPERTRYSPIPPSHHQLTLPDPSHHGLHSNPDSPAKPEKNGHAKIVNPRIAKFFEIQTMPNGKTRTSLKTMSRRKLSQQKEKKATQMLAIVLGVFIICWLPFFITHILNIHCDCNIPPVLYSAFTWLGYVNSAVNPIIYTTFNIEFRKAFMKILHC
Assay remarks: Antagonist activity at Sprague-Dawley rat striatum membrane D2 receptor assessed as inhibition of dopamine stimulated [35S]GTPgammaS binding measured after 90 mins by scintillation counter analysis
For each record, check the reported IC50: if it is below 20 µM write true, else write false.

Please review the entries below; each comes with its answer.
{"columns": ["Compound", "Target or system", "Category"],
 "data": [
  ["CC12C(=O)C(C)(C(c3ccccc3)=C1c1ccccc1)C1C(=O)N(CCCCN3CCN(c4ccccc4F)CC3)C(=O)C12 (stereo unspecified)", "D(2) dopamine receptor (Rattus norvegicus, UniProt P61169)", "true"],
  ["COc1ccccc1N1CCN(CCCCN2C(=O)C3C(C2=O)C2(C)C(=O)C3(C)C(c3ccccc3)=C2c2ccccc2)CC1 (stereo unspecified)", "D(2) dopamine receptor (Rattus norvegicus, UniProt P61169)", "true"],
  ["CC12C(=O)C(C)(C(c3ccccc3)=C1c1ccccc1)C1C(=O)N(CCCCN3CCN(c4ncccn4)CC3)C(=O)C12 (stereo unspecified)", "D(2) dopamine receptor (Rattus norvegicus, UniProt P61169)", "false"],
  ["CC12C(=O)C(C)(C(c3ccccc3)=C1c1ccccc1)C1C(=O)N(CCCCN3CCN(c4cccc(Cl)c4)CC3)C(=O)C12 (stereo unspecified)", "D(2) dopamine receptor (Rattus norvegicus, UniProt P61169)", "false"],
  ["CC12C(=O)C(C)(C(c3ccccc3)=C1c1ccccc1)C1C(=O)N(CCCCN3CCN(c4ccccc4Cl)CC3)C(=O)C12 (stereo unspecified)", "D(2) dopamine receptor (Rattus norvegicus, UniProt P61169)", "true"]
]}

Next, consider the following compound.
Challenge: Find out if reported IC50 for CC12C(=O)C(C)(C(c3ccccc3)=C1c1ccccc1)C1C(=O)N(CCCCN3CCN(c4ccccn4)CC3)C(=O)C12 (stereo unspecified) is less than 20 µM
Response given: false

---

Assay remarks: Selectivity index, ratio of IC50 for cytotoxicity against human HMEC-1 cells to IC50 for cytotoxicity against human PC-3 cells
Format: toxicity, cell-based
Particulars: HMEC-1 cells and PC-3 cells, read-out: Ratio IC50
Quantity name: selectivity ratio

{"columns": ["Compound", "Quantity name", "Result value"],
 "data": [
  ["COc1ccccc1N1CCN(CCCCN2C(=O)C3C(C2=O)C2(C)C(=O)C3(C)C(c3ccccc3)=C2c2ccccc2)CC1 (stereo unspecified)", "selectivity ratio", 2.07]
]}

Challenge: Query: selectivity ratio; subject: CC12C(=O)C(C)(C(c3ccccc3)=C1c1ccccc1)C1C(=O)N(CCCCN3CCN(c4ccccc4Cl)CC3)C(=O)C12 (stereo unspecified)
Response given: 2.63

Challenge: Query: selectivity ratio; subject: CC12C(=O)C(C)(C(c3ccccc3)=C1c1ccccc1)C1C(=O)N(CCCCN3CCN(c4cccc(Cl)c4)CC3)C(=O)C12 (stereo unspecified)
Response given: 2.55

Challenge: Query: selectivity ratio; subject: CC12C(=O)C(C)(C(c3ccccc3)=C1c1ccccc1)C1C(=O)N(CCCCN3CCN(c4ccccn4)CC3)C(=O)C12 (stereo unspecified)
Response given: 1.73

Challenge: Query: selectivity ratio; subject: CC12C(=O)C(C)(C(c3ccccc3)=C1c1ccccc1)C1C(=O)N(CCCCN3CCN(c4ccccc4F)CC3)C(=O)C12 (stereo unspecified)
Response given: 1.92

Challenge: Query: selectivity ratio; subject: CC12C(=O)C(C)(C(c3ccccc3)=C1c1ccccc1)C1C(=O)N(CCCCN3CCN(c4ncccn4)CC3)C(=O)C12 (stereo unspecified)
Response given: 1.49

---

Assay remarks: Selectivity index, ratio of IC50 for cytotoxicity against human HMEC-1 cells to IC50 for cytotoxicity against human A549 cells
Type: toxicity, cell-based
Particulars: HMEC-1 cells and A549 cells, read-out: Ratio IC50
For each record, check the reported selectivity ratio: if it is below 2 write y, else write n.

{"columns": ["Compound", "Category"],
 "data": [
  ["CC12C(=O)C(C)(C(c3ccccc3)=C1c1ccccc1)C1C(=O)N(CCCCN3CCN(c4ccccn4)CC3)C(=O)C12 (stereo unspecified)", "n"]
]}

Challenge: Find out if reported selectivity ratio for CC12C(=O)C(C)(C(c3ccccc3)=C1c1ccccc1)C1C(=O)N(CCCCN3CCN(c4ccccc4F)CC3)C(=O)C12 (stereo unspecified) is less than 2
Response given: y

Challenge: Find out if reported selectivity ratio for CC12C(=O)C(C)(C(c3ccccc3)=C1c1ccccc1)C1C(=O)N(CCCCN3CCN(c4ncccn4)CC3)C(=O)C12 (stereo unspecified) is less than 2
Response given: y

Challenge: Find out if reported selectivity ratio for COc1ccccc1N1CCN(CCCCN2C(=O)C3C(C2=O)C2(C)C(=O)C3(C)C(c3ccccc3)=C2c2ccccc2)CC1 (stereo unspecified) is less than 2
Response given: y

Challenge: Find out if reported selectivity ratio for CC12C(=O)C(C)(C(c3ccccc3)=C1c1ccccc1)C1C(=O)N(CCCCN3CCN(c4cccc(Cl)c4)CC3)C(=O)C12 (stereo unspecified) is less than 2
Response given: y

Challenge: Find out if reported selectivity ratio for CC12C(=O)C(C)(C(c3ccccc3)=C1c1ccccc1)C1C(=O)N(CCCCN3CCN(c4ccccc4Cl)CC3)C(=O)C12 (stereo unspecified) is less than 2
Response given: y

---

Below, each entry is listed alongside its reported Activity.
Test system: K562
Assay remarks: Antiproliferative activity against human K562 cells assessed as reduction in cell viability at IC50 measured after 72 hrs by trypan blue dye based assay relative to control
Format: functional
Express your answer in %, writing the number without its unit.

The examples below pair each entry with its known result.
{"columns": ["Molecule", "Unit tag", "Activity"],
 "data": [
  ["CC12C(=O)C(C)(C(c3ccccc3)=C1c1ccccc1)C1C(=O)N(CCCCN3CCN(c4ccccc4Cl)CC3)C(=O)C12 (stereo unspecified)", "%", 30],
  ["COc1ccccc1N1CCN(CCCCN2C(=O)C3C(C2=O)C2(C)C(=O)C3(C)C(c3ccccc3)=C2c2ccccc2)CC1 (stereo unspecified)", "%", 44],
  ["CC12C(=O)C(C)(C(c3ccccc3)=C1c1ccccc1)C1C(=O)N(CCCCN3CCN(c4ncccn4)CC3)C(=O)C12 (stereo unspecified)", "%", 28],
  ["CC12C(=O)C(C)(C(c3ccccc3)=C1c1ccccc1)C1C(=O)N(CCCCN3CCN(c4cccc(Cl)c4)CC3)C(=O)C12 (stereo unspecified)", "%", 30],
  ["CC12C(=O)C(C)(C(c3ccccc3)=C1c1ccccc1)C1C(=O)N(CCCCN3CCN(c4ccccc4F)CC3)C(=O)C12 (stereo unspecified)", "%", 30]
]}

Now look at this entry.
Challenge: Query: Activity; subject: CC12C(=O)C(C)(C(c3ccccc3)=C1c1ccccc1)C1C(=O)N(CCCCN3CCN(c4ccccn4)CC3)C(=O)C12 (stereo unspecified)
Response given: 37

---

System: PC-3
Assay remarks: Cytotoxicity against human PC-3 cells assessed as cell growth inhibition measured after 72 hrs by MTT assay
Format: functional, cell-based
Particulars: PC-3, 72 h
For each record, check the reported IC50: if it is below 9 µM write rule met, else write rule not met.

{"columns": ["Molecule", "Category"],
 "data": [
  ["CC12C(=O)C(C)(C(c3ccccc3)=C1c1ccccc1)C1C(=O)N(CCCCN3CCN(c4ccccn4)CC3)C(=O)C12 (stereo unspecified)", "rule not met"],
  ["CC12C(=O)C(C)(C(c3ccccc3)=C1c1ccccc1)C1C(=O)N(CCCCN3CCN(c4ncccn4)CC3)C(=O)C12 (stereo unspecified)", "rule not met"],
  ["CC12C(=O)C(C)(C(c3ccccc3)=C1c1ccccc1)C1C(=O)N(CCCCN3CCN(c4cccc(Cl)c4)CC3)C(=O)C12 (stereo unspecified)", "rule met"],
  ["COc1ccccc1N1CCN(CCCCN2C(=O)C3C(C2=O)C2(C)C(=O)C3(C)C(c3ccccc3)=C2c2ccccc2)CC1 (stereo unspecified)", "rule not met"]
]}

Next, consider the following molecule.
Challenge: Find out if reported IC50 for CC12C(=O)C(C)(C(c3ccccc3)=C1c1ccccc1)C1C(=O)N(CCCCN3CCN(c4ccccc4Cl)CC3)C(=O)C12 (stereo unspecified) is less than 9 µM
Response given: rule met

---

Assay remarks: Selectivity index, ratio of IC50 for cytotoxicity against human HMEC-1 cells to IC50 for cytotoxicity against human K562 cells
Type: toxicity, cell-based
Particulars: HMEC-1 cells and K562 cells, read-out: Ratio IC50
Quantity name: selectivity ratio
API note: the answer field is a bare number with no unit suffix.

{"columns": ["Compound", "selectivity ratio"],
 "data": [
  ["CC12C(=O)C(C)(C(c3ccccc3)=C1c1ccccc1)C1C(=O)N(CCCCN3CCN(c4ccccc4Cl)CC3)C(=O)C12 (stereo unspecified)", 5.15],
  ["COc1ccccc1N1CCN(CCCCN2C(=O)C3C(C2=O)C2(C)C(=O)C3(C)C(c3ccccc3)=C2c2ccccc2)CC1 (stereo unspecified)", 4.47],
  ["CC12C(=O)C(C)(C(c3ccccc3)=C1c1ccccc1)C1C(=O)N(CCCCN3CCN(c4ncccn4)CC3)C(=O)C12 (stereo unspecified)", 3.78],
  ["CC12C(=O)C(C)(C(c3ccccc3)=C1c1ccccc1)C1C(=O)N(CCCCN3CCN(c4ccccc4F)CC3)C(=O)C12 (stereo unspecified)", 3.13],
  ["CC12C(=O)C(C)(C(c3ccccc3)=C1c1ccccc1)C1C(=O)N(CCCCN3CCN(c4ccccn4)CC3)C(=O)C12 (stereo unspecified)", 4.13]
]}

Challenge: Query: selectivity ratio; subject: CC12C(=O)C(C)(C(c3ccccc3)=C1c1ccccc1)C1C(=O)N(CCCCN3CCN(c4cccc(Cl)c4)CC3)C(=O)C12 (stereo unspecified)
Response given: 5.01
